Biological target: UniProt Q13574
Sequence (Q13574 other isoform, or with tags, fused parts or gaps): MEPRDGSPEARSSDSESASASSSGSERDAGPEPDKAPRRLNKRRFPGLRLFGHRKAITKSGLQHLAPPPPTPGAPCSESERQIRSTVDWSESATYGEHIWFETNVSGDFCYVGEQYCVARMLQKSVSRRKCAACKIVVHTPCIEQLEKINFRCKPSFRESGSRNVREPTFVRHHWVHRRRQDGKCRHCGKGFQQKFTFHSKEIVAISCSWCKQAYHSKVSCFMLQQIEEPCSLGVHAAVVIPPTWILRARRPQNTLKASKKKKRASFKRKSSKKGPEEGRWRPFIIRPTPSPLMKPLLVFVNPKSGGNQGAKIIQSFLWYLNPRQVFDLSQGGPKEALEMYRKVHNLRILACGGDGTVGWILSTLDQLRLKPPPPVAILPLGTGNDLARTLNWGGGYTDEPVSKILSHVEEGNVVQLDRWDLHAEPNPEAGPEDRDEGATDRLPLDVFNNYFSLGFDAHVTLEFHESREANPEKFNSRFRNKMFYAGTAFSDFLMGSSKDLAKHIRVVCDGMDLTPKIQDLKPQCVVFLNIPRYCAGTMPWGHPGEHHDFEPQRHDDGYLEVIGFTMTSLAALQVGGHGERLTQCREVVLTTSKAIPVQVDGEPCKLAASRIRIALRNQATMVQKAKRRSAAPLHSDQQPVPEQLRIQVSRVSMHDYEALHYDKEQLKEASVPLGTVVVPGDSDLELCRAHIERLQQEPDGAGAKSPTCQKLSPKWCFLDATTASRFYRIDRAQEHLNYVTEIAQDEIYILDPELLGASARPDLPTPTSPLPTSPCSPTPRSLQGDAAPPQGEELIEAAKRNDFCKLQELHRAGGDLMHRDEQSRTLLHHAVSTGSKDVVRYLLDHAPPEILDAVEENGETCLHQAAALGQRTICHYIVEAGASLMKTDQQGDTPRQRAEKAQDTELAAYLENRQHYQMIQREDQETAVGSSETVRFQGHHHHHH
Endpoint label: IC50 (µM)

Some solved entries appear below for comparison.
{"Compound": "C[C@@H]1CN(c2cc(=O)n(C)c3ccc(C#N)nc23)[C@@H](C)CN1C(C(=O)N1CCOCC1)c1ccc(F)cc1 (stereo partly shown)", "Subject of test": "UniProt Q13574", "Reported": 42.9}
{"Compound": "C[C@@H]1CN(c2cc(=O)n(C)c3ccc(C#N)nc23)[C@@H](C)CN1C(CC(=O)NC(C)(C)C)c1ccc(F)cc1 (single isomer, unassigned)", "Subject of test": "UniProt Q13574", "Reported": 6.84}

A: CC(C)N(C)C(=O)CC(c1ccc(F)cc1)N1C[C@H](C)N(c2cc(=O)n(C)c3ccc(C#N)nc23)C[C@H]1C (stereo partly shown)
B: C[C@@H]1CN(c2cc(=O)n(C)c3ccc(C#N)nc23)[C@@H](C)CN1C(C(=O)OCCC1(C)N=N1)c1ccc(F)cc1 (stereo partly shown)
Query string: Would you kindly point out which of A and B has the smaller IC50 figure? Use the label to indicate which entry you chose.
Result string: B
(B: 0.19 µM, A: 4.12 µM)
